Tested on: P. aeruginosa ATCC 10145
EXPERIMENT: CFU-assay, P. aeruginosa-cidal activity
Assay type: cell-based, Pseudomonas aeruginosa
COND: pH 7.0, 0.25% glucose
No end group written: not given here.
MEASUREMENT KIND: MBC100

Sample records with MBC100:
GHHGGGGGHGGGHGGHGGGGGH (Modified peptide derived from human hornerin (HR 1-18 G+H)) [HR 1-18 G + H]    >300 µg/mL
GRHGGGGGHGGGHGGHGGGGGR (Modified peptide derived from human hornerin (HR 1-18 L-G/Q-G/6S-6G))    >300 µg/mL
GRRGSGLGRSSSRGGRGSGSGR [HR 1-18 4H-4R]    9.38 µg/mL

Now consider the entry below.
## Task For the sequence GRHGSGGGHSSSHGGHGSGSGR (Modified peptide derived from human hornerin (HR 1-18 L-G/Q-G)) , what MBC100 is on record?
## Result >300 µg/mL
